- Tested on: BT-549 breast
- measurement_description: NCI tumour cell line growth inhibition, 48 h
property_label: TGI

molecule="C/C=C/C1=CN2C(=O)c3cc(OC4OC(C)C(NC)C(C)(O)C4O)c(C)cc3N=C[C@@H]2C1 (stereo partly specified)" tested_on="BT-549 breast" property_label=TGI measurement="0.0408 µM"
molecule=COc1cc2nc3c(=C(C#N)C#N)c4ccccc4n3c(=O)c2cc1OC tested_on="BT-549 breast" property_label=TGI measurement="> 100 µM"
molecule=ClC(Cl)c1nc(-c2ccccc2)n2nc(-c3ccccc3)cc2n1 tested_on="BT-549 breast" property_label=TGI measurement="> 100 µM"
molecule=CCn1nc(-c2ccc(C(=O)OC)cc2)nc2c(=O)n(C)c(=O)nc1-2 tested_on="BT-549 breast" property_label=TGI measurement="2.99 µM"
molecule=COc1cc(OC)c2nc3occc3c(OC)c2c1 tested_on="BT-549 breast" property_label=TGI measurement="> 100 µM"
molecule="Cc1ccc(C2C3Cc4ccccc4C3=NN2c2ccc(S(=O)(=O)NC(=O)NC3CCCCC3)cc2)cc1 (stereo unspecified)" tested_on="BT-549 breast" property_label=TGI measurement="42.9 µM"
molecule=CCOC(=O)CCSS(=O)(=O)c1ccccc1 tested_on="BT-549 breast" property_label=TGI measurement="> 100 µM"
molecule=O=C(Nc1sccc1S(=O)(=O)c1ccc(Cl)cc1)c1ccc(Cl)cc1 tested_on="BT-549 breast" property_label=TGI measurement="> 100 µM"
molecule=O=C(/C=C\Sc1ccccn1)c1cccc(Br)c1 tested_on="BT-549 breast" property_label=TGI measurement="32 µM"
molecule="CC1(C)COP(=S)(c2ccccn2)O[C@@H]1c1ccccc1 (stereo partly specified)" tested_on="BT-549 breast" property_label=TGI measurement="> 100 µM"
molecule=COc1ccc(NC(=S)Nc2ccccc2)cc1 tested_on="BT-549 breast" property_label=TGI measurement="> 100 µM"
